# PROTOCOL: Rodent pharmacokinetic study
# Type: in vivo, male Wistar rats
# RUN PARAMETERS: male, Wistar, plasma; rat, oral (gavage), 3 mg/kg
MEASURE NAME: AUC(0-t) (ng·h/mL)

MOLECULE	MEASURE NAME	MEASURED
Cl.O=S(=O)(c1ccccc1)c1ccc2c(c1)OCCN2C1CCNCC1F (single isomer, unassigned; peak iii) [Example 1]	AUC(0-t)	1000

====

# PROTOCOL: Rodent pharmacokinetic study
# Format: in vivo, male Wistar rats
# RUN PARAMETERS: male, Wistar, plasma; rat, intravenous (bolus), 1 mg/kg

COMPOUND	half-life
Cl.O=S(=O)(c1ccccc1)c1ccc2c(c1)OCCN2C1CCNCC1F (single isomer, unassigned; peak iii) [Example 1]	4.5 h
